Test system: rat neutrophils
Assay: Inhibitory action of super oxide anion release from rat neutrophils
Format: cell-based
Settings: Neutrophil, stimulation with 0.3 μM calcium ionophore A23187, chemiluminescence, Lusigenin
test readout: IC50 (µM)

Worked examples, 2 molecules total:
# molecule, target or system, test readout, reported result
data = [
    ("COc1ccc(C2(C)CNC(=O)CO2)cc1OC (stereo not shown)", "rat neutrophils", "IC50", 1.6),
    ("COc1ccc(C2CNC(=O)CO2)cc1OC1CCCC1 (stereo not shown)", "rat neutrophils", "IC50", 5.8),
]

1: COc1ccc(C2CNC(=O)CO2)cc1OC (stereo not shown)
2: COc1ccc(C2CN(Cc3ccc(Br)cc3)C(=O)CO2)cc1OC1CCCC1 (stereo not shown)
Query block: Just curious, which one has the larger IC50 reading, 1 or 2 ? # reply format: chosen label
Result block: 1
